Field: pKi. Provide a value for each of the molecules that follow.
Target Of Assay: Carbonic anhydrase 2 (Homo sapiens)
Note: pKi values are expressed as the negative base-10 logarithm of concentration in M.

Recorded pKi for OB(O)/C=C/Cc1ccccc1 , please?
4.74

How about this molecule: OB(O)/C=C/c1ccccc1
3.27

How about this molecule: COc1ccc(B(O)O)cc1
5.10

How about this molecule: Cc1ccc(/C=C/B(O)O)cc1
3.21

How about this molecule: Cc1ccc(B(O)O)cc1
4.97

How about this molecule: OB(O)c1ccc(Oc2ccccc2)cc1
4.94

How about this molecule: OB(O)/C=C/c1ccc(-c2ccccc2)cc1
3.43

How about this molecule: OB(O)c1ccc(Br)cc1
5.15

====

This document collects Ki values reported for Carbonic anhydrase (Candida albicans (strain SC5314 / ATCC MYA-2876) (Yeast)).
Response body: numeric value in µM, unit text excluded.

Recorded Ki for Cc1ccc(B(O)O)cc1 [TOLYL BORONIC ACID] , please?
9

How about this compound: OB(O)c1ccc(Oc2ccccc2)cc1
8.6

How about this compound: OB(O)c1ccc(Br)cc1
15.9

How about this compound: OB(O)/C=C/c1ccc(-c2ccc(C(F)(F)F)cc2)cc1
5210

How about this compound: CCCCc1ccc(B(O)O)cc1
8

How about this compound: OB(O)/C=C/c1ccc(-c2ccccc2)cc1
42.3

How about this compound: OB(O)/C=C/Cc1ccccc1
633

How about this compound: OB(O)c1ccc(-c2ccccc2)cc1 [BIPHENYLBORONIC ACID]
7.8

Source of measurements: ChEMBL document CHEMBL1151882
